- measurementTarget: MAPK14 (human) (UniProt Q16539)
- Sequence (Q16539 whole entry, looked up): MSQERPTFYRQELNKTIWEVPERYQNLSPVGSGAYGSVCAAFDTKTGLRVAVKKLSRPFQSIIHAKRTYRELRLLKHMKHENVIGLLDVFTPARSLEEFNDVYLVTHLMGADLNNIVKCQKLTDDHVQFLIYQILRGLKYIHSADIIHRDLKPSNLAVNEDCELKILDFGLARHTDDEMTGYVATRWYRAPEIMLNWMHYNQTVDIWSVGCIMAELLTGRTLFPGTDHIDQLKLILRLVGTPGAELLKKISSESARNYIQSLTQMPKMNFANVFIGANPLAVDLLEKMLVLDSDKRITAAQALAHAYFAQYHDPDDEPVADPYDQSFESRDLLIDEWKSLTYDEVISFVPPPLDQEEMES
quantityMeasured: IC50

| structureSmilesString | testResult |
| --- | --- |
| Cc1cc(OCc2ccc(F)cc2F)c(Br)c(=O)n1-c1c(F)cc(N2CCOCC2)cc1F | < 1000 nM |
| Cc1cc(OCc2ccc(F)cc2F)c(Br)c(=O)n1-c1cccc(C(=O)NCCO)c1 | < 1000 nM |
| Cc1cc(OCc2ccc(F)cc2F)c(Br)c(=O)n1-c1cccc(C(=O)N(C)C)c1 | < 1000 nM |
| CN(C)Cc1cc(OCc2ccc(F)cc2F)c(Br)c(=O)n1-c1c(F)cccc1F | < 1000 nM |
| Cc1cc(OCc2ccc(F)cc2F)c(Br)c(=O)n1-c1c(F)cc(F)cc1F | < 1000 nM |
| O=C(O)c1ccc(Cn2ccc(OCc3ccccc3)c(Br)c2=O)cc1 | < 1000 nM |
| Cc1cc(OCc2ccc(F)cc2F)c(Br)c(=O)n1-c1cccc(CN)c1 | 1000 to 25000 nM |
| Cc1cc(OCc2ccc(F)cc2F)c(Br)c(=O)n1-c1ccc(C(=O)NCCCN)cc1 | < 1000 nM |

Hey, can you go through the list below and give me IC50 for every item?
1. Cc1cc(OCc2ccc(F)cc2F)c(Br)c(=O)n1Cc1cnc(CN(C)C)cn1
2. Cc1cc(OCc2ccc(F)cc2F)c(Br)c(=O)n1Cc1cnc(C(=O)N(C)C)cn1

Result:
1000 to 25000 nM
< 1000 nM

====

# MAPK14 (human) (UniProt Q16539): IC50 values follow

| compound | IC50 |
| --- | --- |
| CC(=O)Nc1ccc(Cn2c(C)cc(OCc3ccc(F)cc3F)c(Br)c2=O)cc1 | < 1 µM |
| O=c1c(Br)c(OCc2ccccc2)ccn1CC1CCNCC1 | 25 to 100 µM |
| CN(C(=O)Oc1ccn(Cc2ccccc2)c(=O)c1Br)c1ccccc1 | > 100 µM |
| Cc1cc(OCc2ccc(F)cc2F)c(Br)c(=O)n1-c1cccc(C(=O)NC(C)C)c1 | < 1 µM |

Below is a list of compounds. For each, state its recorded IC50.
1. COC(=O)c1ccc(C)c(-n2c(C)cc(OCc3ccc(F)cc3F)c(Cl)c2=O)c1
2. Cc1cc(OCc2ccccc2)cc(=O)n1Cc1ccccc1
3. Cc1c(Br)c(OCc2ccccc2)c(Br)c(=O)n1Cc1ccccc1
4. CCOC(=O)CNc1nc(C)ncc1Cn1c(C)cc(OCc2ccc(F)cc2F)c(Br)c1=O
5. Cc1cc(OCc2ccc(F)cc2F)c(Br)c(=O)n1Cc1ccccc1C#N
6. O=c1c(Br)c(NCc2ccccc2)ccn1Cc1cccc(F)c1
7. Cc1cc(NCc2ccc(F)cc2F)c(Cl)c(=O)n1-c1c(F)cccc1F

Result:
1: < 1 µM; 2: 25 to 100 µM; 3: 25 to 100 µM; 4: 1 to 25 µM; 5: 1 to 25 µM; 6: 1 to 25 µM; 7: 1 to 25 µM

// each compound listed below needs its IC50
1. CC(C)(C)c1ccc(Cn2ccc(OCc3ccc(F)cc3F)c(Br)c2=O)cc1
2. O=c1c(Br)c(OCc2ccc(F)cc2F)cc(CN2CCOCC2)n1-c1c(F)cccc1F
3. Cc1cc(OCc2ccc(F)cc2F)c(Br)c(=O)n1Cc1cccc(CNC(N)=O)c1

Result:
["1 to 25 µM", "< 1 µM", "1 to 25 µM"]

Required: IC50, one value per compound below.
1. Cc1cc(OCc2ccc(F)cc2F)c(Br)c(=O)n1-c1cccc(C(=O)N(C)CCO)c1
2. Cc1c(C2CO2)c(OCc2ccc(F)cc2F)c(Br)c(=O)n1-c1c(F)cccc1F (stereo not given)
3. COC(=O)c1ccc(-n2c(C)cc(OCc3ccc(F)cc3F)c(Br)c2=O)c(Cl)c1
4. Cc1cc(OCc2ccc(F)cc2F)c(Cl)c(=O)n1-c1cc(CO)ccc1Cl
5. COC(=O)NCc1cccc(Cn2c(C)cc(OCc3ccc(F)cc3F)c(Br)c2=O)c1
6. Cc1cc(OCc2ccc(F)cc2F)c(Br)c(=O)n1Cc1cccc(CNS(C)(=O)=O)c1
7. Cc1cc(OCc2ccc(F)cc2F)c(Br)c(=O)n1Cc1ccc(C(=O)N(C)C)cc1
8. Cc1cc(OCc2ccc(F)cc2F)c(Br)c(=O)n1Cc1ccc(CN2CCOCC2)cc1

Result:
1. 1 to 25 µM
2. 25 to 100 µM
3. < 1 µM
4. < 1 µM
5. < 1 µM
6. < 1 µM
7. < 1 µM
8. < 1 µM

Below are some compounds; for each one, tell me its IC50.
1. Cc1cc(OCc2ccc(F)cc2F)c(Cl)c(=O)n1-c1cccc(C(=O)O)c1
2. O=c1c(Br)c(OCc2ccccc2)ccn1CC1CCCNC1 (stereo not given)
3. C=CCNc1cc(C)n(-c2c(F)cccc2F)c(=O)c1Br

Result:
1 to 25 µM
> 100 µM
1 to 25 µM
